Numbers sourced from PubChem BioAssay AID686941.

target or system: UniProtKB P08684
Sequence (P08684 whole entry, looked up): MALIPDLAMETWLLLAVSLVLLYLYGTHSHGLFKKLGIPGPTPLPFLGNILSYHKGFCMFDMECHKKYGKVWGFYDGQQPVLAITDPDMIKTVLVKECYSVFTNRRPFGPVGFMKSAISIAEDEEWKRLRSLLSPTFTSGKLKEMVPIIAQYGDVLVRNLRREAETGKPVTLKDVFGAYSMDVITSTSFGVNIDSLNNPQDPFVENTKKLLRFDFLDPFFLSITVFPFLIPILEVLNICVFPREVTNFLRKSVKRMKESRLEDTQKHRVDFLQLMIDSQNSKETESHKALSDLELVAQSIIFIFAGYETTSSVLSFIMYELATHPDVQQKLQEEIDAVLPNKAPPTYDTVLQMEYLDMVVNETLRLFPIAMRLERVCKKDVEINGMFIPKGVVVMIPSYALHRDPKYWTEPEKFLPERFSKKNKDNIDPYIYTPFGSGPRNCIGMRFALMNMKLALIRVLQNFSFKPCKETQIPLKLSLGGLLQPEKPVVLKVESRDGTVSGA
experiment notes: CYP3A4 and CYP3A5 inhibition, late-stage follow-up, counter-screen, biochemical, LC-MS/MS, purified recombinant enzymes (AID 686941)
run conditions: recombinant CYP3A4/CYP3A5, LC-MS/MS metabolite formation; CYP3A4
reported metric: IC50 (nM)
Respond with the bare value in nM.

Q. Look up IC50 of O=C(Nc1ccc(-c2ccc3ccccc3c2)cc1)Nc1ccc(-c2ccnc3nc[nH]c23)cc1 and report it.
A. 1700

---

target or system: Cytochrome P450 3A5 (Homo sapiens)
experiment notes: CYP3A4 and CYP3A5 inhibition, late-stage follow-up, counter-screen, biochemical, LC-MS/MS, purified recombinant enzymes (AID 686941)
run conditions: recombinant CYP3A4/CYP3A5, LC-MS/MS metabolite formation; CYP3A5
reported metric: pIC50
Formally, pIC50 is defined as -log10 of the concentration c, with c in mol/L.

Q. Look up pIC50 of O=C(Nc1ccc(-c2ccc3ccccc3c2)cc1)Nc1ccc(-c2ccnc3nc[nH]c23)cc1 and report it.
A. 4.89
